Experimental target: T1, human IL4 (human, UniProt P05112 25-153, biotinylated in the SPR and competition assays (sites not given))
T1 construct: Peprotech #200-04, mature protein produced in E. coli; also called hIL4; Interleukin 4
T1 sequence: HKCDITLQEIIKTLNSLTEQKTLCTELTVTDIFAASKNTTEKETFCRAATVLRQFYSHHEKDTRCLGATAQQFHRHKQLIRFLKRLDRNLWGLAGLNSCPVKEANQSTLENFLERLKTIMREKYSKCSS
Assay text: SPR ProteOn, biotin-IL4 on neutravidin chip, 1:1 fit
Readout name: kon (M⁻¹ s⁻¹)
Write down the numeric answer in M⁻¹ s⁻¹ and omit the unit.

>  <Binder>
C06_42C7 (designed binder, ankyrin repeat protein; His-tagged, IMAC-purified) DLGKKLLEAASAGQDDEVRILMANGADVNAVDHDGFTPLHLAAADGHLEIVEVLLKHGADVNADDNFGWTPLHLAAFFGHLEIVEVLLKHGADVNAKDQTGLTPLHLAAVDGHLEIVEVLLKHGADVNAQDKFGKTAFDISIDNGNEDLAEILQKLN

>  <kon, M⁻¹ s⁻¹>
1.83e+06

$$$$
>  <Binder>
C06_28D4 (designed binder, ankyrin repeat protein; His-tagged, IMAC-purified) DLGKELLEAASAGQDDEVHILMANGADVNAVDHDGFTPLHLAAADGHLEIVEVLLKHGADVNADDNFGWTPLHLAAFFGHLEIVEVLLKHGADVNAKDQTGLTPLHLAAVDGHLEIVEVLLKNGADVNAQDKFGKTAFDISIDNGNEDLAEILQKLN

>  <kon, M⁻¹ s⁻¹>
1.62e+06

$$$$

Recorded kon for C06_19C3 (designed binder, ankyrin repeat protein; His-tagged, IMAC-purified) DLGKKLLEAARAGQDDEVRILMANGADVNATDDWGDTLLHLAATDGHLEIVEVLLKNGADVNAIDAMGMTPLHLAAVYGYLEIVEVLLKNGADVNAMDFSGFTPLHLAAFSGHLEIVEVLLKYGADVNAQDKFGKTAFDISIDNGNEDLAEILQKLN , please? 962000
